# Test system: SR leukemia
# Assay Protocol: NCI tumour cell line growth inhibition, 48 h
# label = T if TGI >= 60 µM else F

Record excerpt, results attached:
compound="C=CC12CCN(CC1)C(C(O)c1ccnc3ccc(OC)cc13)C2 (configuration not stated)" target_or_test_system="SR leukemia" group_label=T
compound=NC(N)=Nc1nc2ccccc2o1 target_or_test_system="SR leukemia" group_label=T
compound=CCCC(=O)OC[n+]1ccc2c(C)c3[nH]c4ccccc4c3c(C)c2c1 target_or_test_system="SR leukemia" group_label=F
compound=CCCCCCCCCCCC[N+]12CC[N+](CCN)(CC1)CC2 target_or_test_system="SR leukemia" group_label=T
compound=C=C(C)CNCCN target_or_test_system="SR leukemia" group_label=T

*Q* Is reported TGI greater than or equal to 60 µM here: CCOC(=O)CC/C(=N/Nc1ccc(Cl)cc1[N+](=O)[O-])C(=O)OCC
*A* T

*Q* Then this compound: O=C1C=C(c2c(O)ccc3ccccc23)c2cc(O)ccc2C1=O
*A* F

*Q* Then this compound: CCN(C(=O)N[C@@H](C)C(=O)N[C@@H](Cc1ccccc1)C(=O)OC)c1ccccc1
*A* T
